Some compounds, each annotated with its measured T/C.
- Test system: BDF1 mice, B16 melanoma ip, median survival T/C
- run.description: NCI In Vivo Anticancer Drug Screen. Data for tumor model B16 Melanoma (intraperitoneal) in B6D2F1 (BDF1) mice
- condition.set: endpoint: median survival time; dose: 400.0 mg/kg/injection; schedule: Q04DX003 (ip); vehicle: Klucel (hydroxypropylcellulose) (HPC); higher = longer survival
Toxic doses and inconclusive results are not listed.

compound: Cc1ccc(S(=O)(=O)N=S2CCCC2)cc1
T/C: 102 % of control
--
compound: CCCCCCC(=O)CCCC(C)CCCC(C)C (stereo unspecified)
T/C: 88 % of control
--
compound: CCOC(=O)/C(Cc1cc[n+]([O-])c2ccccc12)=N/O
T/C: 88 % of control
--
compound: CNc1ccc(S(=O)(=O)O)cc1
T/C: 86 % of control
--
compound: CC(C)OC(=O)Nc1ccc(-c2ccc(NC(=O)OC(C)C)cc2)cc1
T/C: 92 % of control
--
compound: Cc1cc(Cl)ccc1NC(=O)c1ccccc1C(=O)O
T/C: 106 % of control
--
compound: Cc1cc(C)c(NC(=O)NC(C)C)c(C)c1
T/C: 87 % of control
--
compound: CCC(=O)Oc1ccc(OCc2ccccc2)cc1
T/C: 97 % of control
--
compound: Cc1ccc(S(=O)(=O)N(CCO)CC(C)O)cc1 (stereo unspecified)
T/C: 100 % of control
--
compound: Brc1ccc(C=C2c3ccccc3-c3ccccc32)cc1
T/C: 102 % of control
--
compound: CCO/C=C1\SC(=S)N(c2cccc(C)c2)C1=O
T/C: 92 % of control
--
compound: COc1cc2c(cc1OC)N(S(=O)(=O)c1ccc(C)cc1)CCCC2=O
T/C: 92 % of control
--
compound: C1=C(c2ccccc2)CCCC1
T/C: 103 % of control
--
compound: CCc1ccccc1NC(=O)Nc1ccccc1C
T/C: 87 % of control
--
compound: CCOC(=O)C(Cc1ccc(O)cc1)NP(=O)(OCCCl)OCCCl (stereo unspecified)
T/C: 91 % of control
--
compound: Oc1ccccc1OCc1ccccc1
T/C: 105 % of control

====

- Test system: BDF1 mice, B16 melanoma ip, median survival T/C
- run.description: NCI In Vivo Anticancer Drug Screen. Data for tumor model B16 Melanoma (intraperitoneal) in B6D2F1 (BDF1) mice
- condition.set: endpoint: median survival time; dose: 100.0 mg/kg/injection; schedule: Q01DX009 (ip); vehicle: saline; higher = longer survival
Inconclusive results and toxic doses are left out.

compound: CNc1nc(N(C)C)nc(N(C)C)n1
T/C: 116 % of control

compound: CC[N+](CC)(CC)CCC[n+]1ccc(/C=N\O)cc1
T/C: 111 % of control

compound: COc1cc(C(N)=O)cc(OC)c1O
T/C: 115 % of control

compound: NC(=O)Nc1ccccc1
T/C: 97 % of control

compound: COC(=O)/C(C#N)=N/O
T/C: 92 % of control

compound: CCOC(=O)c1c[nH]c2oc(/C=N/N3CC(CN4CCOCC4)OC3=O)cc2c1=O (stereo not drawn)
T/C: 105 % of control

compound: CC(N)Cc1ccccc1 (stereo not drawn)
T/C: 95 % of control

compound: CCOC(CNC(=O)CC(C)=O)OCC
T/C: 110 % of control

compound: CCC(C)OC(N)=O (stereo not drawn)
T/C: 123 % of control

compound: COc1cc(C(=O)OC(C)CN2CCOCC2)cc(OC)c1OC (stereo not drawn)
T/C: 108 % of control

compound: CN(C)CC1CCCCN1 (stereo not drawn)
T/C: 100 % of control

compound: COc1ccc2c3c1OC1C4(CCC5C(C2)N(CC2CC2)CCC351)OCCO4 (stereo not drawn)
T/C: 90 % of control

compound: Nc1c(S(=O)(=O)O)cc(Nc2ccccc2)c2c1C(=O)c1ccccc1C2=O
T/C: 115 % of control

====

- Tested on: BDF1 mice, B16 melanoma ip, median survival T/C
- run.description: NCI In Vivo Anticancer Drug Screen. Data for tumor model B16 Melanoma (intraperitoneal) in B6D2F1 (BDF1) mice
- condition.set: endpoint: median survival time; dose: 200.0 mg/kg/injection; schedule: Q04DX003 (ip); vehicle: Klucel (hydroxypropylcellulose) (HPC); higher = longer survival
Toxic doses and inconclusive results are not listed.
// values below are reported T/C

record.smiles: CC(C)OC(=O)Nc1ccc(-c2ccc(NC(=O)OC(C)C)cc2)cc1
T/C: 90 % of control
--
record.smiles: Cc1ccc(C)c(NC(=O)Nc2ccccc2C)c1
T/C: 87 % of control
--
record.smiles: Cc1cc(C)cc(-n2nnc3ccccc3c2=O)c1
T/C: 91 % of control
--
record.smiles: CCO/C=C1\SC(=S)N(c2cccc(C)c2)C1=O
T/C: 89 % of control
--
record.smiles: Clc1ccc(C(Cl)(Cl)Cl)cc1Cl
T/C: 119 % of control
--
record.smiles: Oc1ccccc1OCc1ccccc1
T/C: 105 % of control
--
record.smiles: CCN(CC)CCOc1cc(C)ccc1C(C)C
T/C: 86 % of control
--
record.smiles: Cc1cc(OC(=O)Nc2cccc(Cl)c2)ccc1[N+](=O)[O-]
T/C: 107 % of control
--
record.smiles: O=[N+]([O-])c1ccc(/C=C/c2ccccc2)c([N+](=O)[O-])c1
T/C: 96 % of control
--
record.smiles: CC(=O)NC(=O)Nc1ccccc1
T/C: 95 % of control
--
record.smiles: CNc1ccc(C(=O)O)cc1I
T/C: 104 % of control
--
record.smiles: COc1c(C(C)(C)C)cc([N+](=O)[O-])c(C)c1[N+](=O)[O-]
T/C: 96 % of control

====

- Tested on: BDF1 mice, B16 melanoma ip, median survival T/C
- run.description: NCI In Vivo Anticancer Drug Screen. Data for tumor model B16 Melanoma (intraperitoneal) in B6D2F1 (BDF1) mice
- condition.set: endpoint: median survival time; dose: 200.0 mg/kg/injection; schedule: Q04DX003 (ip); vehicle: Klucel (hydroxypropylcellulose) (HPC); higher = longer survival
Toxic doses and inconclusive results are not listed.
attribute.measured: T/C

compound: O=c1sc(N=Nc2ccccc2)nn1-c1ccccc1
attribute.measured: T/C
value: 89 % of control
--
compound: O=[N+]([O-])c1cc([N+](=O)[O-])c(/C=C/c2ccccc2)c([N+](=O)[O-])c1/C=C/c1ccccc1
attribute.measured: T/C
value: 94 % of control
--
compound: CNc1ccc(S(=O)(=O)O)cc1
attribute.measured: T/C
value: 100 % of control
--
compound: NC(=O)c1ncn(C2OC(CO)C(O)C2O)n1 (stereo unspecified)
attribute.measured: T/C
value: 98 % of control
--
compound: Cc1[nH]c(=O)[nH]c(=O)c1C
attribute.measured: T/C
value: 91 % of control
--
compound: O=C(SCC(NSc1ccccc1[N+](=O)[O-])C(=O)O)c1ccccc1 (stereo unspecified)
attribute.measured: T/C
value: 94 % of control
--
compound: O=C(/C=C(\C(=O)c1ccccc1)c1ccccc1)c1ccccc1
attribute.measured: T/C
value: 100 % of control
--
compound: Nc1nc(-c2ccccc2N=NN2CCCCC2)nc2ccccc12
attribute.measured: T/C
value: 113 % of control
--
compound: CCOC(=O)C(Cc1ccc(O)cc1)NP(=O)(OCCCl)OCCCl (stereo unspecified)
attribute.measured: T/C
value: 86 % of control
--
compound: Cc1ccc(Cl)cc1NC(=O)c1ccc(Cl)cc1Cl
attribute.measured: T/C
value: 102 % of control
--
compound: Cc1c(C)c([N+](=O)[O-])c(Br)c(C)c1[N+](=O)[O-]
attribute.measured: T/C
value: 98 % of control

====

- Test system: BDF1 mice, B16 melanoma ip, median survival T/C
- run.description: NCI In Vivo Anticancer Drug Screen. Data for tumor model B16 Melanoma (intraperitoneal) in B6D2F1 (BDF1) mice
- condition.set: endpoint: median survival time; dose: 400.0 mg/kg/injection; schedule: Q04DX003 (ip); vehicle: saline with Tween-80; higher = longer survival
Toxic doses and inconclusive results are not listed.
Each record here notes measured T/C.
attribute.measured: T/C

compound: OC(Cc1cnc2ccccc2n1)(C(F)(F)F)C(F)(F)F
experimental.system: BDF1 mice, B16 melanoma ip, median survival T/C
attribute.measured: T/C
value: 102 % of control
//
compound: Cc1nc(C(N)=O)c(=O)[nH]c1C
experimental.system: BDF1 mice, B16 melanoma ip, median survival T/C
attribute.measured: T/C
value: 104 % of control
//
compound: Cc1cc2ccc(OC(=O)c3ccc(N=C(N)N)cc3)cc2oc1=O
experimental.system: BDF1 mice, B16 melanoma ip, median survival T/C
attribute.measured: T/C
value: 95 % of control
//
compound: O=C(O)C(Br)C(Br)c1ccccc1 (centres undefined)
experimental.system: BDF1 mice, B16 melanoma ip, median survival T/C
attribute.measured: T/C
value: 86 % of control
//
compound: COc1ccc(N=C(c2ccccc2)c2ccccc2)cc1
experimental.system: BDF1 mice, B16 melanoma ip, median survival T/C
attribute.measured: T/C
value: 90 % of control
//
compound: CCOC(=O)c1ccc(NC(=O)NC)cc1
experimental.system: BDF1 mice, B16 melanoma ip, median survival T/C
attribute.measured: T/C
value: 86 % of control
//
compound: O=C(NO)c1ccccc1
experimental.system: BDF1 mice, B16 melanoma ip, median survival T/C
attribute.measured: T/C
value: 100 % of control
//
compound: CC(=O)OC1C2CCC(C2)C1C (centres undefined)
experimental.system: BDF1 mice, B16 melanoma ip, median survival T/C
attribute.measured: T/C
value: 97 % of control
//
compound: CC(C)C1=CC2=CCC3C(C)(C(N)=O)CCCC3(C)C2CC1CC#N (centres undefined)
experimental.system: BDF1 mice, B16 melanoma ip, median survival T/C
attribute.measured: T/C
value: 88 % of control
